test system: PPRV, CDV, VSV, PRRSV, AIV, PRV; assay: organism not typed; type: cell-based; settings: read-out: IC50 against these viruses (PPRV, CDV, VSV, PRRSV, AIV, PRV)
QUANTITY KIND: IC50

1. CCCCn1c2cc(O)ccc2c2ccnc(C)c21
380 to 810 nM

----------
experiment: in vitro; conditions: chicken
QUANTITY KIND: CC50

1) CCCCn1c2cc(O)ccc2c2ccnc(C)c21
> 50 µM
